- System: NCI-H720
- METHOD: cells
- Format: functional, cell-based, Homo sapiens
- CONDITION_INFO: Homo sapiens, NCI-H720
- Description: SANGER: Inhibition of human NCI-H720 cell growth in a cell viability assay.
Exercise: for every item that follows, state its recorded pIC50.
Reminder that pIC50 means the negative base-10 logarithm of the concentration expressed in mol/L.

Request: Enter reported pIC50 observed with NCI-H720 for CO[C@H]1C[C@@H]2CC[C@@H](C)[C@@](O)(O2)C(=O)C(=O)N2CCCC[C@H]2C(=O)O[C@H]([C@H](C)C[C@@H]2CC[C@@H](OC(=O)C(C)(CO)CO)[C@H](OC)C2)CC(=O)[C@H](C)/C=C(\C)[C@@H](O)[C@@H](OC)C(=O)[C@H](C)C[C@H](C)/C=C/C=C/C=C/1C
Result: 8.02

Request: // lookup pIC50 | system=NCI-H720 | key= COc1cc2c(Nc3ccc(NC(=O)c4ccccc4)cc3)ncnc2cc1OCCCN1CCOCC1;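 further: growth inhibition of human NCI-H720 cells determined by a cell viability assay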
Result: 5.92

====

- Test system: NCI-H2030;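 further: growth inhibition of human NCI-H2030 cells, read out by a cell viability assay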
- METHOD: cells
- Assay type: functional, cell-based, Homo sapiens
- CONDITION_INFO: Homo sapiens, NCI-H2030
- Description: SANGER: Inhibition of human NCI-H2030 cell growth in a cell viability assay.
pIC50: −log10 of the molar value. Where a name gives a salt, the structure may show the parent alone.
REPORTED_METRIC: pIC50

Request: I have this compound here, Cc1cn(-c2cc(NC(=O)c3ccc(C)c(Nc4nccc(-c5cccnc5)n4)c3)cc(C(F)(F)F)c2)cn1 [NILOTINIB] , and I need its recorded pIC50.
Result: < 5.70

Request: Form field: reported pIC50 of CC1(C)CNc2cc(NC(=O)c3cccnc3NCc3ccncc3)ccc21 [MOTESANIB]
Result: < 5.70

Request: Consider the compound C=C(c1ccc(C(=O)O)cc1)c1cc2c(cc1C)C(C)(C)CCC2(C)C [BEXAROTENE] and give its measured pIC50.
Result: < 5.10

Request: pIC50 for COC1=CC(c2cc3ccccc3[nH]2)=N/C1=C\c1[nH]c(C)cc1C [OBATOCLAX MESYLATE] ?
Result: 6.64

Request: Looking for the measured pIC50 of CC(C)CCN1c2nc(Nc3cc(F)c(O)c(F)c3)ncc2N(C)C(=O)C1C (stereo unspecified) , can you help?
Result: < 5.30

Request: Bench note: what pIC50 did O=C(O)c1ccc(-c2c[nH]c3ncc(-c4ccccc4)cc23)cc1C1CCCC1 [GSK-650394] show?
Result: < 4.80

====

Please respond with reported IC50 for every item in the list.
- Tested on: A549;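 further: growth inhibition of A549 cells, read out with a cell viability assay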
- METHOD: cells
- Assay type: functional, cell-based, Homo sapiens
- CONDITION_INFO: Homo sapiens, A549
- Description: SANGER: Inhibition of human A549 cell growth in a cell viability assay.
Please reply with the bare figure in nM and do not write the unit itself.

Request: What value of IC50 has been reported for the following compound? COc1cc2c(Nc3ccc(NC(=O)c4ccccc4)cc3)ncnc2cc1OCCCN1CCOCC1
Result: 2640

Request: Please give the measured IC50 for this compound: Cn1cnc2c(F)c(Nc3ccc(Br)cc3Cl)c(C(=O)NOCCO)cc21
Result: 214

====

- System: KYSE-510;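 further: cell viability readout used to measure how strongly growth of the cell line is suppressed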
- METHOD: cells
- Type: functional, cell-based, Homo sapiens
- CONDITION_INFO: Homo sapiens, KYSE-510
- Description: SANGER: Inhibition of human KYSE-510 cell growth in a cell viability assay.
pIC50: −log10 of the molar value.
REPORTED_METRIC: pIC50

Request: # get_value(readout='pIC50', item= Cn1cnc2c(F)c(Nc3ccc(Br)cc3Cl)c(C(=O)NOCCO)cc21 )
Result: < 5.40

Request: Find the recorded pIC50 belonging to COc1cc2ncnc(Nc3ccc(F)c(Cl)c3)c2cc1OCCCN1CCOCC1 and report it.
Result: < 6.30

Request: Query: pIC50; subject: CS(=O)(=O)c1ccc(C(=O)Nc2ccc(Cl)c(-c3ccccn3)c2)c(Cl)c1
Result: < 5.00

Request: I'd like to know its pIC50. The compound in question is Cc1cn(-c2cc(NC(=O)c3ccc(C)c(Nc4nccc(-c5cccnc5)n4)c3)cc(C(F)(F)F)c2)cn1
Result: < 5.70

Request: Entry under review: COc1cccc2c1C(=O)c1c(O)c3c(c(O)c1C2=O)C[C@@](O)(C(=O)CO)C[C@@H]3O[C@H]1C[C@H](N)[C@H](O)[C@H](C)O1 . Reported pIC50?
Result: 7.81

Request: Quick check: pIC50 of C=C(c1ccc(C(=O)O)cc1)c1cc2c(cc1C)C(C)(C)CCC2(C)C ?
Result: < 5.10
